- ASSAY NAME: Effective concentration required to inhibit HIV-1 induced cytopathicity by 50% in CEM cells
READOUT NAME: EC50 (nM)
Numbers only, in nM.

State its EC50: Cc1cn([C@@H]2O[C@H](CO[Si](C)(C)C(C)(C)C)[C@@H](O[Si](C)(C)C(C)(C)C)[C@H]2O)c(=O)n(CC(=O)O)c1=O
1800

---

- ASSAY NAME: The compound was evaluated for inhibition of HIV-1 mutant […] recombinant reverse transcriptase
READOUT NAME: pEC50
One number for each entry, as −log10 of the molar value.

Worked cases, pEC50 given:
Cc1cn([C@@H]2O[C@H](CO)[C@@H](O)[C@H]2O[Si](C)(C)C(C)(C)C)c(=O)n(CC(=O)O)c1=O : 4.70
Cc1cn([C@@H]2O[C@H](CO[Si](C)(C)C(C)(C)C)[C@@H](O)[C@H]2O[Si](C)(C)C(C)(C)C)c(=O)n(CC(=O)O)c1=O : 5.35
Cc1cn(C2O[C@H](CO[Si](C)(C)C(C)(C)C)[C@@H](O)[C@H]2O)c(=O)n(CC(=O)O)c1=O (stereo not given in full) : 3.93
Cc1cn([C@@H]2O[C@H](CO)[C@@H](O)[C@H]2O[Si](C)(C)C(C)(C)C)c(=O)n(CC(=O)OCc2ccccc2)c1=O : 5.40
Cc1cn(C2OC(CO[Si](C)(C)C(C)(C)C)CC2O[Si](C)(C)C(C)(C)C)c(=O)n(CC(=O)O)c1=O (stereo not given) : 5.35
Cc1cn([C@@H]2O[C@H](CO[Si](C)(C)C(C)(C)C)[C@@H](O[Si](C)(C)C(C)(C)C)[C@H]2O[Si](C)(C)C(C)(C)C)c(=O)n(CC(=O)O)c1=O : 4.49

// moving on: another record for pEC50
Query pEC50 for Cc1cn([C@H]2C[C@H](O[Si](C)(C)C(C)(C)C)[C@@H](CO[Si](C)(C)C(C)(C)C)O2)c(=O)n(CC(=O)O)c1=O
5.30
